Just for reference, PubChem BioAssay (NCI) is where these values come from.

- ASSAY METHOD TEXT: NCI Yeast Anticancer Drug Screen. Data for the mec2-1 strain (AID 157)
- CONDITION SUMMARY: S. cerevisiae mec2-1 strain, at 50.0 µM, stronger effect = higher value
Compounds without any hit were thinned out: in the full panel of roughly 79,000, 15% have a hit.
This listing pairs compounds with measured growth inhibition.
The figure you give is taken to be in %; do not add the unit.

Look up and report measured growth inhibition for this entry: O=C(Nc1ccc(Cl)cc1)Nc1nnc2nc(C(C(=O)/C=C/c3ccccc3)c3nc4nnc(NC(=O)Nc5ccc(Cl)cc5)n4[nH]c3=O)c(=O)[nH]n12
48

----------
- ASSAY METHOD TEXT: NCI Yeast Anticancer Drug Screen. Data for the bub3 strain (AID 167)
- CONDITION SUMMARY: S. cerevisiae bub3 mutant strain, at 5.0 µM (retest, dose inferred, filed as 0.5), stronger effect = higher value
- Protocol: Growth inhibition of yeast strains with defined genetic alterations is measured as a screen for potential anti-cancer activity. Selected strains with alterations in DNA damage repair or cell cycle control were exposed to compounds and growth inhibition was measured relative to vehicle treated controls. The strain used in this assay is bub3
Compounds without any hit were thinned out: in the full panel of roughly 79,000, 15% have a hit. Where a SMILES comes first, the peptide text is derived from it. [ ]: non-standard residue; d: D form. Nva = CCC[CH](N)C(=O)O
MEASURED ENDPOINT: growth inhibition (%)
The figure you give is taken to be in %; do not add the unit.

As a guide, the following entries are already answered.
CCCCN(CCCC)CC(O)c1ccc2cc(Cl)c3ccccc3c2c1 (centres undefined); 57
Clc1ccc2nc3ccccc3nc2c1; 21
C/C=C/CSc1cc(NC(=S)c2ccsc2C)ccc1Cl; -2
Cn1c(CCC2(C)Cc3ccccc3C(=O)O2)cc2ccccc2c1=O (centres undefined); -27
CC(C)C1=CC23CCC4C(C)(C(=O)O)CCCC4(C)C2CC1c1c(O)ccc(O)c13 (centres undefined); 31
COc1cnc2cc3c4c(cccc4c2c1)NC3=O; 51
COc1ccc(C=C(C(=O)c2ccccc2)C(=O)c2ccccc2)cc1; 16
c1ccc(CSc2nnc(SCc3ccccc3)c3[nH]cnc23)cc1; -3
CCCC(N)C(=O)NC(C(=O)O)C(C)C (centres undefined) (H-[Nva]-Val-OH; configuration not given here); 2
CCCCCCCCCCCCCCCC[N+](C)(C)C(C)c1ccc(OC)cc1 (centres undefined); 98

Look up and report measured growth inhibition for this entry: O=P(O)(O)Oc1c(O)c2ccccc2c2ccccc12
25

Look up and report measured growth inhibition for this entry: CC(=O)N(C)c1ccc2c(c1)Cc1ccccc1-2
16

Look up and report measured growth inhibition for this entry: CCN(CC)CCOC(=O)Nc1cc(Cl)cc(Cl)c1
47

Look up and report measured growth inhibition for this entry: CCc1cccc(CC)c1NC1=C(Cl)C(=O)c2ccccc2C1=O
99

Look up and report measured growth inhibition for this entry: COC1=CC(=O)C(C#CCOCc2ccccc2)=CC1=O
-16

Look up and report measured growth inhibition for this entry: CC(=O)N/N=C1/CC[C@@]2(C)C(=CC[C@H]3C4CCC(C(C)CCCC(C)C)[C@@]4(C)CCC32)C1(C)C (some centres undefined)
-10

Look up and report measured growth inhibition for this entry: CCc1cccc(C)c1NC(=O)C(=O)CC(=O)c1ccccc1Cl
-2

Look up and report measured growth inhibition for this entry: C=CCNCCC1CCCCCC1
7

Look up and report measured growth inhibition for this entry: O=C(O)CN1CCNCCN(CC(=O)O)CCNCC1
60

Look up and report measured growth inhibition for this entry: Cc1ccc(C(OS(=O)(=O)c2ccc(C)cc2)C(F)(F)F)cc1 (centres undefined)
0

Look up and report measured growth inhibition for this entry: N#CN=[N+]([O-])c1ccc(C(=O)O)cc1
96

Look up and report measured growth inhibition for this entry: C=CC1(c2ccc(OC)cc2)OCCCO1
-27

Look up and report measured growth inhibition for this entry: COc1ccc(Cc2coc3ccccc3c2=O)cc1OC
23

Look up and report measured growth inhibition for this entry: COc1cccc(-c2cc(=O)c3c(C)ccnc3[nH]2)c1
-9
